- PROCEDURE SUMMARY: Rat pharmacokinetics and brain penetration (IV and PO)
- Format: in vivo
- MEASUREMENT CONTEXT: male, SD, plasma; Rat, 3 mg/kg IV; 10 mg/kg PO
# clearance per entry
ENDPOINT: clearance (mL/min/kg)

> print(dat)
                                   molecule   endpoint  data.value
1  CN1CCN(c2cccc3nc([C@H]4CCC[C@@H](c5ncccc5Cl)N4)cn23)CC1 (single isomer, unassigned) [Compound I-188]  clearance        74.3
2  CN1CCN(c2cccc3nc([C@H]4CCC[C@@H](c5ncccc5Cl)N4)cn23)CC1 (racemic) [Compound I-149]  clearance         127
3  Cc1cccnc1[C@@H]1CCC[C@H](c2nc3cccc(N4CCN(C)CC4)n3c2Cl)N1  clearance        24.3
4  CN1CCN(c2cccc3nc([C@@H]4CCC[C@H](c5ncccc5Cl)N4)cn23)CC1 (single isomer, unassigned)  clearance        68.8

---

- PROCEDURE SUMMARY: Pharmacokinetics after intravenous or oral administration to dogs
- Assay type: in vivo
- MEASUREMENT CONTEXT: male, beagle, plasma; dog, PO: 3 mg/kg
ENDPOINT: bioavailability (%)

> print(dat)
                                   compound         endpoint  data.value
1  CN1CCN(c2cccc3nc([C@H]4CCC[C@@H](c5ncccc5Cl)N4)cn23)CC1 (single isomer, unassigned)  bioavailability          65

---

# efflux ratio at 90 min, 10 μM per entry
- PROCEDURE SUMMARY: in vitro
- MEASUREMENT CONTEXT: human, Caco-2, pH 7.4

COMPOUND	efflux ratio at 90 min, 10 μM
Cc1c([C@@H]2CCC[C@H](c3ncccc3Cl)N2)nc2cccc(N3CCN(C)CC3)n12 (stereo in doubt)	0.1 to 10
Cc1cccnc1[C@@H]1CCC[C@H](c2nc3cccc(N4CCC(N(C)C)CC4)n3c2Cl)N1C	0.1 to 10
CC[C@H]1OC(=O)[C@H](C)[C@@H](O[C@H]2C[C@@](C)(OC)[C@@H](O)[C@H](C)O2)[C@H](C)[C@@H](O[C@@H]2O[C@H](C)C[C@H](N(C)C)[C@H]2O)[C@](C)(O)C[C@@H](C)C(=O)[C@H](C)[C@@H](O)[C@]1(C)O [Erythromycin, reference compound]	> 116

---

# Kp uu per entry
- PROCEDURE SUMMARY: Mouse brain uptake assay (pharmacokinetics and brain penetration after IV administration), 0-1 h, 3 time points
- Format: in vivo, Male CD1 Mice
- MEASUREMENT CONTEXT: male, CD1, brain and plasma; Mouse, 3 mg/kg IV, 0-1 h; read-out: Kp, uu (unbound brain/unbound plasma drug concentration ratio)
ENDPOINT: Kp uu

> print(dat)
                                   molecule  data.value
1  Cc1cccnc1[C@@H]1CCC[C@H](c2nc3cccc(N4CCN(C(C)C)CC4)n3c2Br)N1C         0.3
2  CN1CCN(c2cccc3nc([C@H]4CCC[C@@H](c5ncccc5Cl)N4)cn23)CC1 (racemic)        0.38
3  CCN1CCN(c2cccc3nc([C@H]4CCC[C@@H](c5ncccc5C)N4C)c(Br)n23)CC1        0.32

---

- TARGET SYSTEM: Jurkat cells expressing CXCR4 (Homo sapiens (Human), UniProt P61073)
- Sequence (P61073 whole entry): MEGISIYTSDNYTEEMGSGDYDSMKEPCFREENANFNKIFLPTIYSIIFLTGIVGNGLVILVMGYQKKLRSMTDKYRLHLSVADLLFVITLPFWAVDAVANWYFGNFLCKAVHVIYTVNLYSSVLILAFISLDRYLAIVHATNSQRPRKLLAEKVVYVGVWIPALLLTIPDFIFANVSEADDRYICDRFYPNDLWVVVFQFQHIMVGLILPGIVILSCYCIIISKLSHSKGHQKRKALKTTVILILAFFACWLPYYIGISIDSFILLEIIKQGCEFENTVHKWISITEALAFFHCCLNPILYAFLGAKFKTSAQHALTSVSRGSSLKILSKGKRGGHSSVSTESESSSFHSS
- PROCEDURE SUMMARY: Chemokine (CXCL12-AF647) binding inhibition assay
- MEASUREMENT CONTEXT: CXCL12-AF647 25 ng/mL, read-out: IC50 CXCL-12 binding Jurkat
ENDPOINT: IC50

> print(dat)
                           molecular.string      data.value
1  CCN1CCN(c2cccc3nc([C@H]4CCC[C@@H](c5ncccc5C)N4C)cn23)CC1  0.01 to 100 nM
2  CN1C2CCC1CN(c1cccc3nc([C@H]4CCC[C@@H](c5ncccc5Cl)N4)cn13)C2  0.01 to 100 nM
3  Cc1cccnc1[C@@H]1CCC[C@H](c2nc3cccc(N4CCN(C5CC5)CC4)n3c2Br)N1C  0.01 to 100 nM
4  Cc1cccnc1[C@@H]1CCC[C@H](c2nc3ccccn3c2-c2cccnc2)N1       ≥ 1000 nM

---

# AUC(0-t) per entry
- PROCEDURE SUMMARY: Mouse brain uptake assay, 0-24 h, 4 time points
- Format: in vivo
- MEASUREMENT CONTEXT: male, CD1, Mouse plasma, 3 mg/kg IV, 4 time points, read-out: AUClast (p)
ENDPOINT: AUC(0-t) (ng·h/mL)

> print(dat)
                                   molecule  unit.name  data.value
1  CN1CCN(c2cccc3nc([C@H]4CCC[C@@H](c5ncccc5Cl)N4C)c(Cl)n23)CC1 [Compound I-115]    ng·h/mL        1400
2  CCOCc1c([C@H]2CCC[C@@H](c3ncccc3Cl)N2C)nc2cccc(N3CCN(C)CC3)n12 [Compound I-117]    ng·h/mL        1480
3  Cc1cccnc1[C@@H]1CCC[C@H](c2cn3c(-c4cccnc4)cccc3n2)N1C [Compound I-6]    ng·h/mL        1040
4  Cc1c([C@@H]2CCC[C@H](c3ncccc3Cl)N2)nc2cccc(N3CCN(C)CC3)n12 (stereo in doubt) [Compound I-193]    ng·h/mL        2130
5  Cc1cccnc1[C@@H]1CCC[C@H](c2nc3cccc(N4CCN(C)CC4)n3c2Cl)N1 [Compound I-146]    ng·h/mL        6590
6  Cc1cccnc1[C@@H]1CCC[C@H](c2cn3c(N4CCN(C)CC4)cccc3n2)N1 [Compound I-187]    ng·h/mL        1720

---

- PROCEDURE SUMMARY: in vitro
- MEASUREMENT CONTEXT: human, Caco-2, pH 7.4
ENDPOINT: Papp B→A at 90 min, 10 μM

> print(dat)
                                    compound       data.value
 1  CC(C)c1cccnc1[C@@H]1CCC[C@H](c2cn3c(N4CCN(C)CC4)cccc3n2)N1C [Compound I-51]  100 to 300 nm/s
 2  CCN1CCN(c2cccc3nc([C@H]4CCC[C@@H](c5ncccc5C)N4C)c(Br)n23)CC1 [Compound I-19]    1 to 100 nm/s
 3  Cc1cccnc1[C@@H]1CCC[C@H](c2nc3cccc(N4CCN(C)CC4)n3c2Cl)N1C [Compound I-18]    1 to 100 nm/s
 4  CCN1CCN(c2cccc3nc([C@H]4CCC[C@@H](c5ncccc5C)N4C)c(Cl)n23)CC1 [Compound I-88]    1 to 100 nm/s
 5  COc1cccnc1[C@@H]1CCC[C@H](c2nc3cccc(N4CCN(C)CC4)n3c2Cl)N1 [Compound I-173]  100 to 300 nm/s
 6  Cc1cccnc1[C@@H]1CCC[C@H](c2nc3ccccn3c2[C@@H](O)C2CCN(C)CC2)N1C [Compound I-54]    1 to 100 nm/s
 7  CC[C@@H](O)c1c([C@H]2CCC[C@@H](c3ncccc3C)N2C)nc2cccc(N3CCN(C)CC3)n12 [Compound I-139]       > 300 nm/s
 8  CCOCc1c([C@H]2CCC[C@@H](c3ncccc3C)N2C)nc2cccc(N3CCN(C)CC3)n12 [Compound I-21]  100 to 300 nm/s
 9  CCOCc1c([C@H]2CCC[C@@H](c3ncccc3C)N2C)nc2cccc(N3CCN(C4CC4)CC3)n12 [Compound I-58]  100 to 300 nm/s
10  CCN1CCN(c2cccc3nc([C@H]4CCC[C@@H](c5ncccc5C)N4C)cn23)CC1 [Compound I-13]  100 to 300 nm/s
11  CN(C)C1CCN(c2cccc3nc([C@H]4CCC[C@@H](c5ncccc5Cl)N4C)cn23)CC1 [Compound I-142]  100 to 300 nm/s
12  Cc1cccnc1[C@H]1CCC[C@@H](c2nc3cccc(N4CCN(C)CC4)n3c2C)N1 (stereo in doubt) [Compound I-192]  100 to 300 nm/s
13  Cc1cccnc1[C@@H]1CCC[C@H](c2nc3ccccn3c2N2CCN(C)CC2)N1 [Compound I-154]  100 to 300 nm/s
14  CO[C@H](c1c([C@H]2CCC[C@@H](c3ncccc3C)N2C)nc2ccccn12)C1CCN(C)CC1 [Compound I-104]  100 to 300 nm/s
15  Cc1cccnc1[C@@H]1CCC[C@H](c2nc3cccc(N4CCN(C5CC5)CC4)n3c2Cl)N1C [Compound I-93]    1 to 100 nm/s
